# Tested on: M14 melanoma
# TEST SUMMARY: NCI-60 one-dose screen, 48 h (100 = growth as untreated, 0 = no growth, -100 = all killed)
# MEASUREMENT CONTEXT: 10 µM
Compounds without any hit were thinned out: in the full panel of roughly 83,000, 20% have a hit.
Values of growth greater than or equal to 90% map to 1; values below map to -1.

Given the entry O=C1Nc2ccccc2C1=NC1CCCCC1 , answer whether its growth meets or surpasses 90%. 1

Try this compound next: Cc1cc(N(CCCNc2ccnc3cc(Cl)ccc23)Cc2ccc3c(c2)OCO3)nc(N2CCCCC2)n1 -1

Try this compound next: O=C(CC(C(=O)c1ccccc1)N1CCOCC1)c1ccccc1 (centres undefined) 1

Try this compound next: COc1ccc(-c2nc3sccn3c2-c2nc3c([nH]2)C(=O)c2ccccc2C3=O)cc1 1

Try this compound next: Clc1ccc2c(NCCCNc3nccc(Nc4ccc(Br)cc4)n3)ccnc2c1 -1

Try this compound next: Nc1cc2c(cc1Cl)-c1ccc([N+](=O)[O-])cc1/C2=N\O -1

Try this compound next: CCN(CC)CCC(CNc1c(C)cnc2cc(Cl)ccc12)c1ccc(Cl)cc1 (centres undefined) -1

Try this compound next: COc1ccc(/C=C2/CN(C(=O)c3ccccc3F)C/C(=C\c3ccc(OC)cc3)C2=O)cc1 -1

Try this compound next: COc1ccc(OC)c(/C=C/c2nc(SC)n(-c3ccc(Cl)cc3)n2)c1 -1

Try this compound next: O=C(O)CC(Cl)C(Cl)CC(=O)O (centres undefined) 1

Try this compound next: CC12O[C@H](C[C@@H](OC(=O)c3ccccc3)[C@H]1O)n1c3ccccc3c3c4c(c5c6ccccc6n2c5c31)C(=O)NC4=O -1

Try this compound next: O=C(O)CCCCSc1ncnc2nc[nH]c12 1

Try this compound next: CC/C(=C(/c1ccc(OCCN(C)C)cc1)c1ccc(OC(=O)CCCCC(=O)c2c(C)[nH]c(/C=C3\N=C(c4ccc[nH]4)C=C3OC)c2C)cc1)c1ccccc1 -1

Try this compound next: Cc1cccc(C)c1NC(=O)c1sc2nc3c(cc2c1N)C(=O)CCC3 -1

Try this compound next: N=C(N)c1ccc(-c2ccc(-c3ccccc3)o2)nc1 1

Try this compound next: c1ccc([I+]c2ccccc2)cc1 -1

Try this compound next: COc1ccc(-c2nc3ncccn3c2-c2nnc(-c3ccsc3C)o2)cc1 1

Try this compound next: COc1ccc(-c2nn(-c3cccc(NC(=O)c4ccc5c(c4)OCCO5)c3)cc2-c2ccncc2)cc1Cl -1

Try this compound next: COc1cc(-c2nc(-c3nnc(-c4ccccc4Cl)o3)c3ccccn23)cc(OC)c1OC 1

Try this compound next: O=C(N/N=C/c1ccccc1O)C(O)(c1ccccc1)c1ccccc1 -1

Try this compound next: O=C(CSSCC(=O)c1ccc(Cl)cc1)c1ccc(Cl)cc1 -1

Try this compound next: COc1ccc2c(c1)C(=O)c1c-2c(=O)n(CCCN(C)C)c2cc(OC)c(OC)cc12 -1

Try this compound next: CN1CCCNc2c(c(=O)c2=O)NCCCN(C)CCCNc2c(c(=O)c2=O)NCCCN(C)CCCNc2c(c(=O)c2=O)NCCCN(C)CCCNc2c(c(=O)c2=O)NCCCN(C)CCCNc2c(c(=O)c2=O)NCCCN(C)CCCNc2c(c(=O)c2=O)NCCCN(C)CCCNc2c(c(=O)c2=O)NCCC1 -1

Try this compound next: CCN(CC)CCN1CC(=O)Nc2cc(Cl)ccc21 1

Try this compound next: Nc1nc(N=Nc2ccc(O)cc2)cc(=O)[nH]1 1

Try this compound next: CC(C)(Cl)CCC1=C(Cl)C(=O)c2ccccc2C1=O -1

Try this compound next: Cc1ccc(C)c(C(O)(c2cc(C)ccc2C)C2(O)CCCCC2)c1 1

Try this compound next: O=C(Nc1nc2ccc(F)cc2s1)c1cc(-c2ccc(F)cc2)n2nc(-c3ccccc3)cc2n1 -1

Try this compound next: COc1ccccc1CNCCN1C(=O)c2ccc3c4c(ccc(c24)C1=O)C(=O)N(CCNCc1ccccc1OC)C3=O -1

Try this compound next: COc1ccc(N2C(=O)C3c4[nH]c5ccc(OCc6ccccc6)cc5c4C4CCC(C(C)C)CC4C3C2=O)cc1 (centres undefined) 1

Try this compound next: CC/C(=N\N=C(/CC)c1ccc(Br)cc1)c1ccc(Br)cc1 1

Try this compound next: COc1ccc(NC(=O)Cc2nc3nc4sc(C)c(C)c4c(=O)n3[nH]2)cc1 1

Try this compound next: CC(=O)N(C)c1ccc(Nc2ccc(Nc3ccc(N(C)C(C)=O)cc3)c3c2C(=O)c2ccccc2C3=O)cc1 -1

Try this compound next: COc1ccc(OC)c(/C=C/c2nnc(Nc3ccc(Cl)cc3)o2)c1 -1

Try this compound next: COc1ccc(C2=NN(C(=O)c3ccc(S(C)(=O)=O)cc3)C(c3ccc(OC)c(OC)c3)C2)c(OC)c1 (centres undefined) 1

Try this compound next: CCOC(=O)C1CCc2c(ccc3ccccc23)N1CCC#N (centres undefined) 1

Try this compound next: CC(C)=NNc1ncnc2c1ncn2C1OC(CO)C(O)C1O (centres undefined) -1
